Reference source: paper PMC11472310

# System: K562 cancer cells
# experimentalProtocol: PBMC cytotoxicity against K562 cancer cells (flow cytometry)
# Type: cell-based
# conditionParameters: Table S2; alone: compounds 10 μM, LPS 1 μg/mL, IL-2 200 U/mL
# Description: In this study, we investigated the potential of desmuramylpeptides, both alone and in combination with LPS, to enhance the cytotoxic activity of PBMCs against cancer cells employing a flow-cytometry-based cytotoxicity assay based on coincubation of preactivated PBMCs with fluorescently labeled K562 cancer cells.[82] Among the diverse subpopulations within PBMCs, natural killer (NK) cells play a pivotal role in detecting and eliminating cancer cells. […]
propertyLabel: Cytotoxicity (ratio to control)
Numbers only.

Some molecules with known Cytotoxicity (ratio to control) results, for comparison:
molecule=CCOC(=O)[C@@H](CCC(=O)NC12C[C@H]3C[C@@H](C1)C[C@@H](C2)C3)NC(=O)[C@@H](NC(=O)CNC(=O)/C=C/c1ccc(O)c(OC)c1)C(C)C propertylabel="Cytotoxicity (ratio to control)" resultnumber=0.91
molecule=CCOC(=O)CC[C@@H](NC(=O)[C@@H](NC(=O)CNC(=O)/C=C/c1ccc(OC(=O)CO[C@H]2CC[C@@]3(C)C(=CC[C@H]4[C@@H]5CC[C@H]([C@H](C)CCCC(C)C)[C@@]5(C)CC[C@@H]43)C2)c(OC)c1)C(C)C)C(=O)OCC propertylabel="Cytotoxicity (ratio to control)" resultnumber=1.34
molecule=CCCCCCCCCCCC(=O)Oc1ccc(/C=C/C(=O)NCC(=O)N[C@H](C(=O)N[C@H](CCC(=O)OCC)C(=O)OCC)C(C)C)cc1OC propertylabel="Cytotoxicity (ratio to control)" resultnumber=1.00
molecule="CC(=O)N[C@H]1C(O)O[C@H](CO)[C@@H](O)[C@@H]1O[C@H](C)C(=O)N[C@@H](C)C(=O)N[C@H](CCC(=O)O)C(N)=O (mixture of isomers) [MDP, muramyl dipeptide, reference compound]" propertylabel="Cytotoxicity (ratio to control)" resultnumber=1.17
molecule=CCCC(=O)Oc1ccc(/C=C/C(=O)NCC(=O)N[C@H](C(=O)N[C@H](CCC(=O)OCC)C(=O)OCC)C(C)C)cc1OC propertylabel="Cytotoxicity (ratio to control)" resultnumber=1.04
molecule=CCOC(=O)[C@@H](CCC(=O)NCCCNCCCCNCCCN)NC(=O)[C@@H](NC(=O)CNC(=O)/C=C/c1ccc(O)c(OC)c1)C(C)C propertylabel="Cytotoxicity (ratio to control)" resultnumber=1.10

Continue with the next molecule.
**Query** Given CC/C=C\C/C=C\C/C=C\C/C=C\C/C=C\CCCC(=O)Oc1ccc(/C=C/C(=O)NCC(=O)N[C@H](C(=O)N[C@H](CCC(=O)OCC)C(=O)OCC)C(C)C)cc1OC , state its recorded Cytotoxicity (ratio to control).
**Result** 1.02

====

# Tested on: K562 cancer cells
# experimentalProtocol: PBMC cytotoxicity against K562 cancer cells (flow cytometry)
# Assay type: cell-based
# conditionParameters: Table S2; 10 μM + LPS 1 μg/mL
Threshold rule: Cytotoxicity (ratio to control), + LPS greater than or equal to 2 is satisfied; below that, not satisfied.

# count of solved cases: 5
compound="CC(=O)N[C@H]1C(O)O[C@H](CO)[C@@H](O)[C@@H]1O[C@H](C)C(=O)N[C@@H](C)C(=O)N[C@H](CCC(=O)O)C(N)=O (mixture of isomers) [MDP, muramyl dipeptide, reference compound]" targetdesc="K562 cancer cells" classification=satisfied
compound="CCOC(=O)[C@@H](CCC(=O)NCCCNCCCCNCCCN)NC(=O)[C@@H](NC(=O)CNC(=O)/C=C/c1ccc(O)c(OC)c1)C(C)C [Compound 32]" targetdesc="K562 cancer cells" classification=satisfied
compound="CCOC(=O)[C@@H](CCC(=O)NC12C[C@H]3C[C@@H](C1)C[C@@H](C2)C3)NC(=O)[C@@H](NC(=O)CNC(=O)/C=C/c1ccc(O)c(OC)c1)C(C)C [Compound 28]" targetdesc="K562 cancer cells" classification=satisfied
compound="CCCCCCCCCCCC(=O)Oc1ccc(/C=C/C(=O)NCC(=O)N[C@H](C(=O)N[C@H](CCC(=O)OCC)C(=O)OCC)C(C)C)cc1OC [Compound 2]" targetdesc="K562 cancer cells" classification="not satisfied"
compound="CC/C=C\\C/C=C\\C/C=C\\C/C=C\\C/C=C\\CCCC(=O)Oc1ccc(/C=C/C(=O)NCC(=O)N[C@H](C(=O)N[C@H](CCC(=O)OCC)C(=O)OCC)C(C)C)cc1OC [Compound 23]" targetdesc="K562 cancer cells" classification="not satisfied"

**Query** Reported Cytotoxicity (ratio to control), + LPS at or above 2? CCOC(=O)CC[C@@H](NC(=O)[C@@H](NC(=O)CNC(=O)/C=C/c1ccc(OC(=O)CO[C@H]2CC[C@@]3(C)C(=CC[C@H]4[C@@H]5CC[C@H]([C@H](C)CCCC(C)C)[C@@]5(C)CC[C@@H]43)C2)c(OC)c1)C(C)C)C(=O)OCC [Compound 26]
**Result** satisfied

**Query** Reported Cytotoxicity (ratio to control), + LPS at or above 2? CCCC(=O)Oc1ccc(/C=C/C(=O)NCC(=O)N[C@H](C(=O)N[C@H](CCC(=O)OCC)C(=O)OCC)C(C)C)cc1OC [Compound 3]
**Result** not satisfied
